// endpoint Ki / system 5HT2A (Homo sapiens, UniProt P28223)

Cc1cc(-c2ccc(CNC3Cc4ccccc4C3)cc2)cc(-c2nc[nH]n2)c1 ... 1 µM

// Ki lookup, key: `Cc1cc(C(N)=O)cc(-c2cc(F)c(CNC3Cc4ccccc4C3)c(F)c2)c1`
> 10 µM

What about this compound? `Cc1cc(-c2ccc(CNC3Cc4ccccc4C3)c(F)c2)cc(-c2ncn[nH]2)c1`
1.02 µM

How about `Cc1cc(-c2cc(F)c(CNC3Cc4ccccc4C3)c(F)c2)cc(-c2ncn[nH]2)c1` ?
> 10 µM

// next record `Cc1cc(C(N)=O)cc(-c2ccc(CNC3Cc4ccccc4C3)cc2)c1`
> 10 µM

Entry to check: `Cc1cc(C(N)=O)cc(-c2ccc(CNC3Cc4ccccc4C3)c(F)c2)c1`
> 10 µM
